assay: small-molecule microarray binders of probe aDKK1, primary screen, biochemical, biotinylated probe, 635/667 nm fluorescence (AID 1099); conditions: higher = more signal;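 further: score merges 667nm spot fluorescence with signal to noise across triplicate slides; reference of the scale not given here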
Form field: composite z-score (one value per entry).

- Molecule: "O=C1C2C=CC(C(O)c3ccc([N+](=O)[O-])cc3)N(Nc3ccc([N+](=O)[O-])cc3)C2C(=O)N1c1ccccc1 (centres undefined)"
  composite z-score: 0.969
- Molecule: "COCCCNC(=O)[C@@]1(C)c2ccccc2C(=O)N(Cc2ccc(OC(F)(F)F)cc2)[C@H]1c1ccc(CO)cc1"
  composite z-score: 0.506
- Molecule: "CC(C)[C@@H](OCc1ccccc1)[C@H](C)C=NOC[C@@H](C)[C@H](OCc1ccccc1)C(C)C"
  composite z-score: -0.319
- Molecule: "C=COC[C@H]1CN2[C@@H](CC[C@@H](C)[C@@H]2c2ccc(Br)cc2)C(=O)O1"
  composite z-score: -0.41
